Exercise: state measured 48 h LC50 (-log10 mol/L) for each of the molecules provided.
# Test system: Daphnia magna
# Procedure Details: 48 h LC50 (-log10 mol/L); higher = more toxic
Number only, no unit.

(Q) Tell me the measured 48 h LC50 (-log10 mol/L) of N#CSCSC#N , please.
(A) 6.25

(Q) Here is the next molecule: CCCCC(=O)O
(A) 3.36

(Q) Here is the next molecule: COc1ccccc1O
(A) 3.68

(Q) Here is the next molecule: CC1=CC(=O)C(C)=C(C)C1=O
(A) 5

(Q) Here is the next molecule: O=c1cc[nH]c(=S)[nH]1
(A) 4.22

(Q) Here is the next molecule: CC1=CCC2CC1C2(C)C (stereo unspecified)
(A) 3.52

(Q) Here is the next molecule: CCNc1nc(Cl)nc(NCC)n1
(A) 3.33

(Q) Here is the next molecule: CCCCCOC(=O)Nc1nc(=O)n([C@@H]2O[C@H](C)[C@@H](O)[C@H]2O)cc1F
(A) 2.63

(Q) Here is the next molecule: Nc1nc(=S)c2[nH]cnc2[nH]1
(A) 4.01

(Q) Here is the next molecule: OCCCl
(A) 2.58

(Q) Here is the next molecule: CCOCC
(A) 1.73

----------
# Tested on: Tetrahymena pyriformis
# Procedure Details: 48 h IGC50 (-log10 mol/L); higher = more toxic
Assay Readout: 48 h IGC50 (-log10 mol/L)
Number only, no unit.

(Q) Tell me the measured 48 h IGC50 (-log10 mol/L) of CCCCCCC#CC(=O)O , please.
(A) 3.71

(Q) Here is the next compound: C=C(C)C(=O)OCC(CC)CCCC (stereo not given)
(A) 4.57

(Q) Here is the next compound: Oc1c(Cl)cc(Br)cc1Cl
(A) 4.78

(Q) Here is the next compound: Oc1cccc(Cl)c1Cl
(A) 4.28

(Q) Here is the next compound: CCCCCOC=O
(A) 2.22

(Q) Here is the next compound: CCOC(=O)c1ccccn1
(A) 2.08

(Q) Here is the next compound: Cc1ccc(C=O)c2ccccc12
(A) 4.12

(Q) Here is the next compound: N#CCC(=O)c1ccco1
(A) 3.3

(Q) Here is the next compound: CCOS(=O)(=O)OCC
(A) 2.3

(Q) Here is the next compound: CS(C)=O
(A) 0.548

----------
Exercise: state measured 48 h IGC50 (-log10 mol/L) for each of the compounds provided.
# System: Tetrahymena pyriformis
# Procedure Details: 48 h IGC50 (-log10 mol/L); higher = more toxic

(Q) Lookup: 48 h IGC50 (-log10 mol/L) / Tetrahymena pyriformis / C=COC(=O)c1ccccc1
(A) 3.08

(Q) Here is the next compound: COc1cc(C=O)ccc1O
(A) 2.97

(Q) Here is the next compound: Oc1cccnc1Cl
(A) 2.99

(Q) Here is the next compound: CCCCCCC(C)O (stereo not given)
(A) 3

(Q) Here is the next compound: CCc1cccc(N)c1
(A) 2.97

----------
# Tested on: Tetrahymena pyriformis
# Procedure Details: 48 h IGC50 (-log10 mol/L); higher = more toxic
Hi, to clarify the labels: YES covers 48 h IGC50 (-log10 mol/L) from 3 upward, NO covers anything below 3.

(Q) Could you please find out whether Cc1ccc(O)cc1 has 48 h IGC50 (-log10 mol/L) that meets 3 or exceeds it?
(A) NO

(Q) Here is the next compound: CCCNC
(A) NO

(Q) Here is the next compound: CCCCCCCCCCCN
(A) YES

(Q) Here is the next compound: CCCCC/C=C/C(=O)OC
(A) YES

(Q) Here is the next compound: NNC(=O)c1ccccc1O
(A) YES

(Q) Here is the next compound: CC(C)COC=O
(A) NO

(Q) Here is the next compound: NNC(=O)Cc1ccccc1
(A) NO

(Q) Here is the next compound: Cc1ccc(C#N)cc1
(A) NO

(Q) Here is the next compound: CCOC(=O)CCCCCBr
(A) YES

(Q) Here is the next compound: C=C(C)C(=O)OCC
(A) NO

(Q) Here is the next compound: CCN(CC)c1ccccc1
(A) YES

(Q) Here is the next compound: Cc1cc(Br)cc(Cl)c1O
(A) YES

(Q) Here is the next compound: CCc1cc(O)ccc1Cl
(A) YES

(Q) Here is the next compound: CC(C)COC(=O)c1ccccc1C(=O)OCC(C)C
(A) YES

(Q) Here is the next compound: C=CCOC(=O)C=CC
(A) NO

(Q) Here is the next compound: Cc1ccc(Br)cc1
(A) YES

(Q) Here is the next compound: CCCCOC(=O)CCC(=O)OCCCC
(A) YES

(Q) Here is the next compound: CCCCCCC#N
(A) NO

(Q) Here is the next compound: NC(=O)c1ccc(N)cc1
(A) NO

(Q) Here is the next compound: C/C=C/C(=O)O
(A) NO

(Q) Here is the next compound: C=C(C)C#N
(A) NO

(Q) Here is the next compound: CC(=O)NN
(A) NO

(Q) Here is the next compound: CCC#CC(=O)OCC
(A) YES

(Q) Here is the next compound: OCC(Cl)Cl
(A) NO

(Q) Here is the next compound: Oc1cc(O)cc(O)c1
(A) NO

(Q) Here is the next compound: O=[N+]([O-])c1ccccc1Cl
(A) YES

(Q) Here is the next compound: CCCCCCC=CCO
(A) YES

(Q) Here is the next compound: CCCCCc1cccs1
(A) YES

(Q) Here is the next compound: O=C(c1ccccc1)c1cccc(Cl)c1
(A) YES

(Q) Here is the next compound: CC(C)c1ccc(N)cc1
(A) YES

(Q) Here is the next compound: O=C(O)CCC(=O)O
(A) NO

(Q) Here is the next compound: O=[N+]([O-])c1cc(F)ccc1F
(A) YES

(Q) Here is the next compound: CCCCC(CC)COC(=O)c1ccc(O)cc1 (stereo not given)
(A) YES

(Q) Here is the next compound: O=Cc1cc(O)ccc1[N+](=O)[O-]
(A) YES

(Q) Here is the next compound: CC(Cl)C(N)=O (stereo not given)
(A) NO

(Q) Here is the next compound: C=CC(=O)OC(C)(C)C
(A) YES

(Q) Here is the next compound: CCCCCC#CC(=O)OCC
(A) YES

(Q) Here is the next compound: CCc1cccc2ccccc12
(A) YES

(Q) Here is the next compound: COC(=O)c1ccc(C(C)(C)C)cc1
(A) YES

(Q) Here is the next compound: C=CCC(=O)O
(A) NO

(Q) Here is the next compound: O=C(O)CCCCCl
(A) NO

(Q) Here is the next compound: CCN(C)c1ccccc1
(A) YES

(Q) Here is the next compound: CC(C)CC=O
(A) NO

(Q) Here is the next compound: Cc1cc(N)ncc1[N+](=O)[O-]
(A) YES

----------
# System: Tetrahymena pyriformis
# Procedure Details: 48 h IGC50 (-log10 mol/L); higher = more toxic
Assay Readout: 48 h IGC50 (-log10 mol/L)

(Q) Tell me the measured 48 h IGC50 (-log10 mol/L) of NC(=S)c1ccccc1 , please.
(A) 3.09

(Q) Here is the next molecule: CNc1ccccc1
(A) 3.06

(Q) Here is the next molecule: NNC=O
(A) 2.13

(Q) Here is the next molecule: C/C=C/C=C/C=O
(A) 3.74

(Q) Here is the next molecule: CCC(C)(C)N
(A) 2.3

(Q) Here is the next molecule: CCCCCCCCCCN
(A) 5.06

(Q) Here is the next molecule: C=CCOC(=O)CCCCCCCCC
(A) 3.48

(Q) Here is the next molecule: OCc1cc(Br)ccc1O
(A) 3.34

(Q) Here is the next molecule: CCc1ccc(CO)cc1
(A) 3.07

(Q) Here is the next molecule: Cc1ccc(O)cc1[N+](=O)[O-]
(A) 3.74

(Q) Here is the next molecule: COc1cc(C(C)=O)ccc1O
(A) 2.88

(Q) Here is the next molecule: CCN(CC)C(C)=O
(A) 1.46

(Q) Here is the next molecule: CCCCCCC#CCO
(A) 3.65

(Q) Here is the next molecule: O=[N+]([O-])c1ccccc1
(A) 3.14

(Q) Here is the next molecule: Cc1ccc2ccccc2n1
(A) 3.47

(Q) Here is the next molecule: CCCCCCCCCCC(C)=O
(A) 4.67

(Q) Here is the next molecule: OC(CBr)CBr
(A) 3.57

(Q) Here is the next molecule: CC(C)CCC#N
(A) 2.21

(Q) Here is the next molecule: NC(=O)COc1ccccc1
(A) 2.27

(Q) Here is the next molecule: Clc1cc(Cl)cc(Cl)c1
(A) 3.87

(Q) Here is the next molecule: Nc1c(Br)cc([N+](=O)[O-])cc1[N+](=O)[O-]
(A) 4.24

(Q) Here is the next molecule: CCC(Br)C(=O)OC (stereo unspecified)
(A) 4.02

(Q) Here is the next molecule: CC(=O)C(Cl)Cl
(A) 3.64

(Q) Here is the next molecule: CCC#CC(C)O (stereo unspecified)
(A) 3.51

(Q) Here is the next molecule: CCCCCC/C=C/CO
(A) 3.75

(Q) Here is the next molecule: COc1cc(O)cc(Cl)c1
(A) 3.76

(Q) Here is the next molecule: CCCCOc1ccc(C=O)cc1
(A) 3.72

(Q) Here is the next molecule: O=Cc1cccnc1
(A) 2.87

(Q) Here is the next molecule: CCC(=O)OCC(C)C
(A) 2.31

(Q) Here is the next molecule: Brc1nc(Br)c(Br)[nH]1
(A) 4.43

(Q) Here is the next molecule: CC(=O)C(Cl)C(C)=O
(A) 4.44

(Q) Here is the next molecule: O=Cc1ccccc1[N+](=O)[O-]
(A) 3.17

(Q) Here is the next molecule: CCCCC(=O)OC
(A) 2.15

(Q) Here is the next molecule: CCCCCCC(O)CC (stereo unspecified)
(A) 3.36

(Q) Here is the next molecule: Oc1ccc(N=Nc2ccccc2)cc1
(A) 4.66

(Q) Here is the next molecule: CC(=O)c1ccc(O)c(C(N)=O)c1
(A) 2.9

(Q) Here is the next molecule: COC(=O)c1ccc(C#N)cc1
(A) 2.95

(Q) Here is the next molecule: CN(C)Cc1ccccc1
(A) 3.12

(Q) Here is the next molecule: CC(C)CCBr
(A) 3.25

(Q) Here is the next molecule: O=C(Cc1ccccc1)c1ccc(O)cc1
(A) 4.07

(Q) Here is the next molecule: CC(=O)c1cccc([N+](=O)[O-])c1
(A) 3.32

Origin of values: EPA's aquatic toxicity sets
